# T/C values compiled below
# Tested on: P388 leukemia ip, CD2F1 mice, survival T/C
# assay comment: NCI In Vivo Anticancer Drug Screen. Data for tumor model P388 Leukemia (intraperitoneal) in CD2F1 (CDF1) mice
# assay setup: endpoint: median survival time; dose: 100.0 mg/kg/injection; schedule: Q01DX005 (ip); vehicle: saline; higher = longer survival
Inconclusive results and toxic doses are left out. Numbered stars: 1 amine (or outer) side, 2 acyl side, 3 side chain; on linkers, the order of the positions; unused ones are H or OH. Peptide text beside a SMILES is read from it. ξ: configuration not given here. ξγGlu = O=C(O)C(CCC(=O)[*:2])N[*:1]
readout type: T/C

>>> assay_result("CSC(=O)NCCCN(C)C")
"107 % of control"
>>> assay_result("O=C(O)C(O)C(O)C1[O][Sb]([c]2ccc([N+](=O)[O-])cc2)[O]C1CO (configuration not stated)")
"107 % of control"
>>> assay_result("CC1=CC[N+](C)(C)C(C(N)=O)C1 (configuration not stated)")
"105 % of control"
>>> assay_result("NC(CCC(=O)NCC(=O)NCC(=O)O)C(=O)O (stereo not drawn) (ξγGlu-Gly-Gly-OH)")
"97 % of control"
>>> assay_result("CCNC1(N(C)C)N=C(N(C)C)N=C(N(C)C)O1 (configuration not stated)")
"96 % of control"
>>> assay_result("Cc1cc(F)nc(F)n1")
"98 % of control"
>>> assay_result("NCCCN1CCCC1")
"105 % of control"

====

# Test system: P388 leukemia ip, CD2F1 mice, survival T/C
# assay comment: NCI In Vivo Anticancer Drug Screen. Data for tumor model P388 Leukemia (intraperitoneal) in CD2F1 (CDF1) mice
# assay setup: endpoint: median survival time; dose: 50.0 mg/kg/injection; schedule: Q04DX003 (ip); vehicle: saline; higher = longer survival
Toxic doses and inconclusive results are not listed.
readout type: T/C

>>> assay_result("c1cc(-c2cc3cc(C4=NCCN4)ccc3s2)ccc1C1=NCCN1")
"111 % of control"
>>> assay_result("CCC1(O)OC(=O)C(C)=C1C (stereo not given)")
"99 % of control"
>>> assay_result("NC(=O)c1c(Cl)cccc1Cl")
"99 % of control"
>>> assay_result("CCCCC(CC)COP(=O)(CC(CC)CCCC)OCC(CC)CCCC (stereo not given)")
"100 % of control"
>>> assay_result("C=CCc1ccccc1OC")
"100 % of control"

====

# System: P388 leukemia ip, CD2F1 mice, survival T/C
# assay comment: NCI In Vivo Anticancer Drug Screen. Data for tumor model P388 Leukemia (intraperitoneal) in CD2F1 (CDF1) mice
# assay setup: endpoint: median survival time; dose: 200.0 mg/kg/injection; schedule: Q01DX009 (ip); vehicle: saline; higher = longer survival
# Protocol: The antitumor activity of compounds was measured in mice bearing transplantable tumors. Survival or tumor size were measured and the results are expressed as the measurement made in the treated group (T) divided by the measurement made in the vehicle treated control group (C). The tumor model used in this assay is P388 Leukemia (intraperitoneal) in CD2F1 (CDF1) mice
Toxic doses and inconclusive results are not listed. Square brackets hold non-standard residues; d marks the D form. Peptide text beside a SMILES is read from it. * marks the point of attachment. ξ: configuration not given here. Boc = CC(C)(C)OC(=O)*; ξP = O=C(O)C1CCCN1
readout type: T/C

>>> assay_result("CC(=O)C1=C(N)OCCC1")
"109 % of control"
>>> assay_result("CC(C)=CC1C(C(=O)OCc2ccc3c(c2)OCO3)C1(C)C (configuration not stated)")
"99 % of control"
>>> assay_result("CC(/C=C/c1ccccc1)=N\\NC(=O)C(N)=O")
"98 % of control"
>>> assay_result("CNC(=S)N/N=C\\C(C)=N/Nc1ccc([N+](=O)[O-])cc1")
"87 % of control"
>>> assay_result("CNC(=S)NNC1=NC(=S)NC1(C)C")
"101 % of control"
>>> assay_result("C1=Cc2ccccc2C(=C2CCOCC2)c2ccccc21")
"94 % of control"
>>> assay_result("COC(=O)C1CCCN1C(=O)CNC(=O)OC(C)(C)C (stereo not drawn) (Boc-Gly-[ξP]-OMe)")
"99 % of control"
>>> assay_result("BrCC[N+]12CC[N+](CCBr)(CC1)C2")
"114 % of control"
>>> assay_result("O=C(O)c1cc2c(cc1S(=O)(=O)O)C1C(C3C2C2(Cl)C(Cl)=C(Cl)C3(Cl)C2(Cl)Cl)C2(Cl)C(Cl)=C(Cl)C1(Cl)C2(Cl)Cl (configuration not stated)")
"100 % of control"
>>> assay_result("O=C1/C(=C/c2ccccn2)CCc2ccccc21")
"99 % of control"
>>> assay_result("CC(C)(CO)[C@@H](O)C(=O)NCCC(=O)O")
"106 % of control"
>>> assay_result("CCNC(=O)Oc1ccc[nH]c1=O")
"118 % of control"
